biological target: CCL2_HUMAN (human, UniProt P13500 24-99); assay: BLI
Sequence (P13500 24-99): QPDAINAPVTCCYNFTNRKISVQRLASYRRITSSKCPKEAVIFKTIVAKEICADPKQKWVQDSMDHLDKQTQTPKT
measurement_type: Kd

Query: # Kd lookup, item P467_RHIPU (other) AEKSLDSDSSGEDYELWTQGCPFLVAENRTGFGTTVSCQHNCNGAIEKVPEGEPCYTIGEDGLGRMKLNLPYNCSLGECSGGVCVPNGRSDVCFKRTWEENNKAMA
Result: 0.001 nM

Query: Please look up its Kd: P974_AMBCA (other) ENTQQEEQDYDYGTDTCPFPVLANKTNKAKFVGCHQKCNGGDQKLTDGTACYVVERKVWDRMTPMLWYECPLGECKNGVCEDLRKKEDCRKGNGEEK
Result: 93 nM

Query: What Kd value was documented for this binder, P672_RHIPU (other) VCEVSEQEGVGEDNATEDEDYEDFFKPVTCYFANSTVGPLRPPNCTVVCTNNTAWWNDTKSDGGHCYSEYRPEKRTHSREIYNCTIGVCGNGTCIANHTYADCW ?
Result: 9.09 nM

Query: Record request: Kd value, item P1180_AMBTR (other) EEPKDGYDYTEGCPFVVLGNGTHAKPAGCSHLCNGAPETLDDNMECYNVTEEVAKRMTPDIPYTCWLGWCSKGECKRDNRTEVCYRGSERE
Result: 53 nM
